Values from patent US20090011497

ASSAYED SYSTEM: T1, hu-MPL (human, UniProt P40238)
T1 chain: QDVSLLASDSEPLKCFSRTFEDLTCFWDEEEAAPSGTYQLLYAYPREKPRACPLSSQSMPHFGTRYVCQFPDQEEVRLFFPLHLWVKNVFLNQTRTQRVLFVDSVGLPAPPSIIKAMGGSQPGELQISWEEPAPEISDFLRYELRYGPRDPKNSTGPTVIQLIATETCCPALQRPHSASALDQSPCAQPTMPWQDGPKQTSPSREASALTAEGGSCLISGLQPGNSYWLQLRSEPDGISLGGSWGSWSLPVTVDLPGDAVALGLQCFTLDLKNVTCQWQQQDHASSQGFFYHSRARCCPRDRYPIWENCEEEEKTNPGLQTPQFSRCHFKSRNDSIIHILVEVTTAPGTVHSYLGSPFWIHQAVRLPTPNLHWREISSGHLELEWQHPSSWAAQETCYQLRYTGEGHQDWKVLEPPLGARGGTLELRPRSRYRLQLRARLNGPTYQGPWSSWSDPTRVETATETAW
ASSAY PROCEDURE: SPR
pKd: −log10 of the molar value.
PARAMETER MEASURED: pKd

>  <BINDER>
YCDEGPTLKQWLVCLGLQ [TMP20]

>  <PARAMETER MEASURED>
pKd

>  <ASSAY VALUE>
9.25

$$$$
